Data provenance: PubChem BioAssay AID1745844

System: rodent lifetime carcinogenesis bioassay, tumor incidence TD50
experimental_protocol: carcinogenic potency in animals, long-term in vivo studies, CPDB compilation (AID 1745844)
experimental_setup: rat; strain Fischer 344; males; in feed; site: rectum; lesion: polypoid adenoma; dosed 66 weeks; study length 66 weeks
measure_name: TD50 (mg/kg/day)
Number only, in mg/kg/day; omit the unit.

Nc1c(Br)cc(Br)c2c1C(=O)c1ccccc1C2=O yielded TD50 of 426

---

Test system: rodent lifetime carcinogenesis bioassay, tumor incidence TD50
experimental_protocol: carcinogenic potency in animals, long-term in vivo studies, CPDB compilation (AID 1745844)
experimental_setup: rat; strain Fischer 344; males; in feed; site: skin + subcutaneous tissue; lesion: squamous-cell carcinoma + squamous-cell papilloma; dosed 78 weeks; study length 106 weeks
measure_name: TD50

CCn1c2ccccc2c2cc(N)ccc21 yielded TD50 of 257 mg/kg/day

---

Tested on: rodent lifetime carcinogenesis bioassay, tumor incidence TD50
experimental_protocol: carcinogenic potency in animals, long-term in vivo studies, CPDB compilation (AID 1745844)
experimental_setup: mouse; strain B6C3F1; males; in drinking water; site: liver; lesion: hepatocellular carcinoma; dosed 100 weeks; study length 104 weeks
Activity calls are given as the source filed them. No rule for the calls is given here.
measure_name: TD50

Cc1c(N(C)C)c(=O)n(-c2ccccc2)n1C yielded TD50 of 5390 mg/kg/day (inactive)

---

Tested on: rodent lifetime carcinogenesis bioassay, tumor incidence TD50
experimental_protocol: carcinogenic potency in animals, long-term in vivo studies, CPDB compilation (AID 1745844)
experimental_setup: mouse; strain B6C3F1; males; inhaled; site: all sites; lesion: hemangioma; dosed 13 weeks; study length 104 weeks
measure_name: TD50

C=CC=C yielded TD50 of 45.8 mg/kg/day

---

Tested on: rodent lifetime carcinogenesis bioassay, tumor incidence TD50
experimental_protocol: carcinogenic potency in animals, long-term in vivo studies, CPDB compilation (AID 1745844)
experimental_setup: rat; strain Wistar-random; females; inhaled; site: any site (literature study); lesion: malignant tumor; dosed 123 weeks; study length 123 weeks
measure_name: TD50 (mg/kg/day)
Number only, in mg/kg/day; omit the unit.

CC1CO1 (stereo unspecified) yielded TD50 of 150

---

Tested on: rodent lifetime carcinogenesis bioassay, tumor incidence TD50
experimental_protocol: carcinogenic potency in animals, long-term in vivo studies, CPDB compilation (AID 1745844)
experimental_setup: mouse; strain ICR/Jcl; both sexes; in feed; site: lung; lesion: carcinoma; dosed 54 weeks; study length 54 weeks
measure_name: TD50

Cn1cc(C(=O)O)c(=O)c2ccc(/C=C/c3ccc([N+](=O)[O-])o3)nc21 yielded TD50 of 21.9 mg/kg/day

---

Tested on: rodent lifetime carcinogenesis bioassay, tumor incidence TD50
experimental_protocol: carcinogenic potency in animals, long-term in vivo studies, CPDB compilation (AID 1745844)
experimental_setup: rat; strain Fischer 344; females; in drinking water; site: liver; lesion: hepatocellular adenoma + hepatocellular carcinoma + neoplastic nodule; dosed 96 weeks; study length 97 weeks
measure_name: TD50
Give the number first and the unit second.

COc1cc(-c2ccc(N=Nc3c(S(=O)(=O)O)cc4cc(S(=O)(=O)O)cc(N)c4c3O)c(OC)c2)ccc1N=Nc1c(S(=O)(=O)O)cc2cc(S(=O)(=O)O)cc(N)c2c1O yielded TD50 of 394 mg/kg/day

---

Test system: rodent lifetime carcinogenesis bioassay, tumor incidence TD50
experimental_protocol: carcinogenic potency in animals, long-term in vivo studies, CPDB compilation (AID 1745844)
experimental_setup: mouse; strain B6C3F1; females; in feed; site: liver; lesion: hepatocellular adenoma; dosed 96 weeks; study length 96 weeks
measure_name: TD50 (mg/kg/day)
Number only, in mg/kg/day; omit the unit.

Oc1ccc(O)cc1 yielded TD50 of 17900
